growth at 0.01 µM values by entry
Tested on: SK-MEL-2
Assay: Antiproliferative activity against human SK-MEL-2 cells assessed as cell growth at 10^-8 M after 48 hrs by sulforhodamine B assay
Assay type: functional
Conditions: SK-MEL-2, 48 h, read-out: Activity
readout_kind: growth at 0.01 µM (%)

>>> numeric_result("CNC(=O)c1cc(Oc2ccc3nc(NC(=O)Nc4cc(C(F)(F)F)cc(C(F)(F)F)c4)sc3c2)ccn1")
90
>>> numeric_result("CNC(=O)c1cc(Oc2ccc3nc(NC(=O)Nc4ccc(Cl)c(Cl)c4)sc3c2)ccn1")
115
>>> numeric_result("CNC(=O)c1cc(Oc2ccc3nc(NC(=O)c4cc(C(F)(F)F)cc(C(F)(F)F)c4)sc3c2)ccn1")
88
>>> numeric_result("CNC(=O)c1cc(Oc2ccc3nc(NC(=O)Nc4ccc(Cl)c(C(F)(F)F)c4)sc3c2)ccn1")
103
